// data source = patent US20200385482A1

# tested_target: T1, human PD-L1 (hPD-L1) expressed on transfected 300.19 cells (human, UniProt Q9NZQ7 19-290)
# T1 construct: whole, on cells; also called B7H1
# T1 sequence (Q9NZQ7 19-290): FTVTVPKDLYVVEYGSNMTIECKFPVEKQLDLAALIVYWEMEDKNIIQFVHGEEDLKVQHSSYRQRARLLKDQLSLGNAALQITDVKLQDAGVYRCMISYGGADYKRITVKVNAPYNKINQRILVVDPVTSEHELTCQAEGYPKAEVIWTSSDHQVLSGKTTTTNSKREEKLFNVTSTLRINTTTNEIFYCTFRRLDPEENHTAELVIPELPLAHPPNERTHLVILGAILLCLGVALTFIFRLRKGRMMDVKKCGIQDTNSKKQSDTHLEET
# test_description: FACS, hPD-L1 300.19 cells, assay 2, Ab approx 10 ug/ml
measurement_type: Cells PE-A Mean (MFI)
Quick note: give the figure in MFI, leave out the unit.

Check out these entries, answers already filled in.
| binder | result_units | Cells PE-A Mean |
| --- | --- | --- |
| Ab-42 (antibody, V domains shown, also called huPD-L1 Ab # 42; mAb42) VH: QVQLVQSGAEVKKPGSSVKVSCKASGGTFSSYAISWVRQAPGQGLEWMGGIIPIFGTANYAQKFQGRVTITADKSTSTAYMELSSLRSEDTAVYYCARGRQMFGAGIDFWGPGTLVTVSS VL: NFMLTQPHSVSESPGKTVTISCTRSSGSIDSNYVQWYQQRPGSAPTTVIYEDNQRPSGVPDRFSGSIDSSSNSASLTISGLKTEDEADYYCQSYDSNNRHVIFGGGTKLTVL | MFI | 76800 |
| Ab-30 (antibody, V domains shown, also called huPD-L1 Ab # 30) VH: QVQLVQSGGSVVRPGESLRLSCVASGFIFDNYDMSWVRQVPGKGLEWVSRVNWNGGSTTYADAVKGRFTISRDNTKNSLYLQMNNLRAEDTAVYYCVREFVGAYDLWGQGTTVTVSS VL: QSALTQPASVSGSPGQSITISCTGTSSDVGGYNYVSWYQQHPGKAPKLMIYDVSNRPSGVSNRFSGSKSGNTASLTISGLQAEDEADYYCSSYTSSTLPFGGGTKLTVL | MFI | 67300 |
| Ab-50 (antibody, V domains shown, also called huPD-L1 Ab # 50) VH: QVQLVQSGGEVKKPGASVKVSCKASGYTLSSHGITWVRQAPGQGLEWMGWISAHNGHASNAQKVEDRVTMTTDTSTNTAYMELRSLTADDTAVYYCARVHAALYYGMDVWGQGTLVTVSS VL: QSVLTQPPSVSVAPGQTARITCGGNNIGSKGVHWYQQKPGQAPVLVVYDDSDRPSGIPERFSGSNSGNTATLTISRVEAGDEADYYCQVWDSSSDHWVFGGGTKLTVL | MFI | 69600 |

Consider now this further binder.
The binder Ab-31 (antibody, V domains shown, also called huPD-L1 Ab # 31) VH: QVQLVQSGAEVKKPGATVKVSCKVFGDTFRGLYIHWVRQAPGQGLEWMGGIIPIFGTANYAQKFQGRVTITTDESTSTAYMELSSLRSEDTAVYYCASGLRWGIWGWFDPWGQGTLVTVSS VL: EIVLTQSPATLSLSPGERATLSCRASQSIGNSLAWYQQKPGQAPRLLMYGASSRATGIPDRFSGSGAGTDFTLTISSLEPEDFATYYCQQHTIPTFSFGPGTKVEVK showed Cells PE-A Mean equal to 76400
